TARGET_SYSTEM: T1, Avi/HisMsIL18BPd (recombinant mouse IL-18BP with Avi and poly-His tags) (mouse, biotinylated with BirA on the Avi tag in some assays)
T1 chain: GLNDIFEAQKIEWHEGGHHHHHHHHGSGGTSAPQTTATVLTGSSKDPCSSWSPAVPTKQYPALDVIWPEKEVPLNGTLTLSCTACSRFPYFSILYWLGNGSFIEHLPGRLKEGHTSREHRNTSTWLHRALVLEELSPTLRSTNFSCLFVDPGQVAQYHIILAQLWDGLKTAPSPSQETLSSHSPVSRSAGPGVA
ASSAY_EXPLANATION: cell-based or functional assay
We label by threshold. Values of EC50 of IFNγ release, mouse splenocytes strictly beneath 20 nM are rule met. Values of 20 nM and up are rule not met.

# example entries with known answers
- anti-IL18BP antibody BP-09 (antibody, human IgG1, V domains shown) VH: QVQLQQSGAELVRPGASVTLSCKASGYRFTDYAMHWVKQTPVHGLQWIGIIDPETGDTAFNQKFKGKATLTADKSSSTAYMELSSLTSEDSAVYYCTRPRGAMDYWGQGTSVTVSS VL: DIVMTQSHKFMSTSGGDRVSITCKASQDVGTAVAWYQQKPGISPKLLIYWASTRHTGVPDRFTGSGSGTDFTLAISNVQSEDLADYFCQQYSSHPYTFGGGTKLEIK: rule not met
- anti-IL18BP antibody BP-13 (antibody, human IgG1, V domains shown) VH: QVQLQQSGAELVRPGASVTLSCKASGYTFTDYEMHWVKQTPVHGLEWIGPIDPETGDTAYNQKFKGQATLTADKSSSTAYMELSSLTSEDSAVYYCTRGSRGVFDYWGQGTALTVSS VL: DIVMTQSHKFMSTSVGDRVSITCKASQDVGTAVAWYQQKPGQSPKLLIYWASARHTGVPDRFTGSGSGTDFTLTISNVQSEDLADYFCQHYFNFPRTFGGGTKLEIT: rule not met
- anti-IL18BP antibody BP-10 (antibody, human IgG1, V domains shown) VH: QVQLQQPGAERVEPGASVRLSCKTSGYTFTNYWMHWVKQRPGQGLEWIGMIHPESGSTNNNEKFKSKATLTVDKSSSTAYMQLSSLTSEDSAVYYCARWDRGYFDYWGQGTTLTVSS VL: DIVMTQSHKFMSTSVGDRVSITCKASQDVRSTVGWYQQRPGQSPKLLIYWTSTRHTGVPDRFTGSGSGTDYTLTISSVQAEDLALYYCQQHYSTPYTFGGGTTLEIK: rule not met
- anti-IL18BP antibody BP-12 (antibody, human IgG1, V domains shown) VH: EVQLQQSGPELVKPGASVKMSCKTSGYTFTEYTMHWVKQSHGKSLEWIGGVNPNNGGTTYNQKFRDKATLTVDKSSSTTYMEVRTLTSDDSAVYYCAPLWRVFDYWGQGTTLTVSS VL: DIVMTQSHKFMSSSVGDRVSITCKASQDVGTAVAWYQQKPGQSPKLLIYWASTRHTGVPDRFTGSGSGTDFTLTISNVQSEDLADYFCHQFSRYPLTFGAGTKLELK: rule met

Lab log: compare recorded EC50 of IFNγ release, mouse splenocytes with 20 nM; is it strictly lower for anti-IL18BP antibody BP-14 (antibody, human IgG1, V domains shown) VH: QVQLVQSGAEVKKPGASVKVSCKASGYTFTGYYMHWVRQAPGQGLEWMGIINPRGGSTSHAQKFQGRVTMTRDTSTSTVYMELSSLRSEDTAVYYCARGLELHWFDPWGQGTLVTVSS VL: DIQMTQSPSSLSASVGDRVTITCRASQNIRSWLAWYQQKPGKAPKLLIYAASSLQSGVPSRFSGSGSGTDFTLTISSLQPEDFATYYCQQANSFPYTFGQGTKLEIK ? rule met

Numbers sourced from patent US20250333523A1.
